Reference source for all entries: patent US20200200749A1

assayed-target: T1, EBOV GP (recombinant, full-length extracellular domain) (EBOV (Ebola Zaire), UniProt Q05320 33-650)
T1 sequence: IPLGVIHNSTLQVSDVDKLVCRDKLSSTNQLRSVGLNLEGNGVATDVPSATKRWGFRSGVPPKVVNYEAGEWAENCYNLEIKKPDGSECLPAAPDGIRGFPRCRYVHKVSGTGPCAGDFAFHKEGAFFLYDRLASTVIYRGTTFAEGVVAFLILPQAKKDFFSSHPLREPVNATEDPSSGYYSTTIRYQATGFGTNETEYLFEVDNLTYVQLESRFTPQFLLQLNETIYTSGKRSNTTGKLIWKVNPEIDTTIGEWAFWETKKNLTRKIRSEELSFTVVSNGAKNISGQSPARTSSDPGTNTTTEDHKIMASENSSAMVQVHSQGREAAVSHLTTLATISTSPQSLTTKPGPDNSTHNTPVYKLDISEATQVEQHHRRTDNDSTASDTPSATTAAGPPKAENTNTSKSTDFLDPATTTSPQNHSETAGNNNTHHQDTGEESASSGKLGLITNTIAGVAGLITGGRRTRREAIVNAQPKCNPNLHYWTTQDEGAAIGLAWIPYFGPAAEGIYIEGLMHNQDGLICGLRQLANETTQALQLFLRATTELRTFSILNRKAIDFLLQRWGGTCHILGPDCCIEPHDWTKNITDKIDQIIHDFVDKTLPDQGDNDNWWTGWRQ
experimental-protocol: ELISA, GP coated on plate, mAb serially diluted
Give EC50 for every item shown.
Numbers only, in µg/mL.

binder="EBOV87 (antibody, V domains shown) VH: QVQLVQSGAEVKRPGASVKVSCKASGYTFTSYAISWVRQAPGQGLEWMGWISGNNGNTNYAQKLQGRLTMTTDTSTSTAYMELRSLRSDDTAVYYCARDADIVVVVGATGTYYYGMDVWGQGTLVTVSS VL: DIVMTQSPSTLSASVGDRVTITCRASQSISSWLAWYQQKPGKAPKLLIYDASSLESGVPSRFSGSGSGTEFTLTISSLQPDDFATYYCQQYKSSLRTFGQGTQLEIK" value=724

Hey, can you go through the list below and give me EC50 for every item?
1. EBOV49 (antibody, V domains shown) VH: EVQLVESGGGLVQPGGSLRLSCAASGFTFSSYEINWVRQAPGRGLEWVSYISSSGRTIYYADSVKGRFTISRDNAKNSLYLQMNSLRAEDTAVYYCAREPYVDGILYGAGDSYFDYWGQGTLVTVSS VL: DIQMTQSPSSLSASVGDRVTITCRASQSISNYLNWYQQKPGKAPKVLIYAASSLQSGVSSRFSGSGSGTDFTLTISSLQPEDFATYFCQQSYNTPPVTFGQGTRLEIK
2. EBOV52 (antibody, V domains shown) VH: QVQLQESGPGLVKPSETLSLNCTVSGGSISSYYWSWIRQPPGKGLEWIGYIYDSGRTKYNPSLKSRVTISLDTSKNQFSLKLSSVTAADTAVYYCASLGPFDKLWFGELLPGWFDPWGQGTLVTVSS VL: EIVLTQSPATLSLSPGGRATLSCRASQSVHNYLAWYQQKSGQAPRLLIYDASNRATGIPARFSGSGSGTDFTLTISSLEPDDFAVYYCQHRSNWLTFGGGTKVEIK
3. EBOV62 (antibody, V domains shown) VH: EVQLVESGGGLVQPGGSLRLSCAASGFTFSSYWMSWVRQAPGKGLEWVANIKQDGSAKYYVDSVKGRFTISRDNAKNSLYLQMNSLRAEDTAVYYCARDGLLGISDLLYPIYYFDYWGQGTLVTVSS VL: DIVMTQSPSSLSASVGDRVTITCRASQNIGSYLNWYQQKPGKAPNLLMYAASSLQSGVPSRFSGSGSGTDFTLTITSLQPEDFATYYCQQSYSIPRTFGQGTQLEIK

1. 262
2. 712
3. 228
